- Test system: ASPS-1 complex tumor spheroids, viability
- Assay info: Anticancer human tumor ASPS-1 cell line growth inhibition;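 also: spheroids exposed to agents for 7 days after 3 days of growth; 100% = DMSO vehicle treated spheroids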
- Details: second compound 10 µM; first compound 0.0949 µM; stronger effect = lower value
The following compounds are listed with their measured viability, T/C values.
Report the figure in % without appending any unit label.

# query: viability, T/C of entry Cc1sc2c(c1C)C(c1ccc(Cl)cc1)=NC(CC(=O)Nc1ccc(O)cc1)c1nnc(C)n1-2 (centres undefined) + Cn1nnc2c(C(N)=O)ncn2c1=O 99.1

# query: viability, T/C of entry O=C(c1cc(Cc2n[nH]c(=O)c3ccccc23)ccc1F)N1CCN(C(=O)C2CC2)CC1 + Cn1nnc2c(C(N)=O)ncn2c1=O 85.8

# query: viability, T/C of entry CNCc1ccc(-c2cc(-c3nc(-c4ccc(S(=O)(=O)C(C)C)cc4)cnc3N)on2)cc1 + Cn1nnc2c(C(N)=O)ncn2c1=O 87

# query: viability, T/C of entry Cn1ncnc1[C@H]1c2n[nH]c(=O)c3cc(F)cc(c23)N[C@@H]1c1ccc(F)cc1 + Cn1nnc2c(C(N)=O)ncn2c1=O 80.1
